# TESTED TARGET: human orexin-1 receptor (Homo sapiens (Human), UniProt O43613)
# Sequence (O43613 whole entry): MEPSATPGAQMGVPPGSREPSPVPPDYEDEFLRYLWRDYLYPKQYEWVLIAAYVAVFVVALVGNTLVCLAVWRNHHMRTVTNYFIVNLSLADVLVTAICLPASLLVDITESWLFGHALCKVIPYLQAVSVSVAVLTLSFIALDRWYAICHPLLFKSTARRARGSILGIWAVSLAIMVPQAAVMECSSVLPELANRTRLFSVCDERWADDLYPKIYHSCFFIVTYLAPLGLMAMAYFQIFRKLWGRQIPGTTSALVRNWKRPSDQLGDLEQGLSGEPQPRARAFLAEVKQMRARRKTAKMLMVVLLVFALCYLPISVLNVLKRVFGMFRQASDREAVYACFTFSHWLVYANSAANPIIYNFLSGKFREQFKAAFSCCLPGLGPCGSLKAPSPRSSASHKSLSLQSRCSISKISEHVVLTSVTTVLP
# TEST DESCRIPTION: Intracellular calcium measurements (FLIPR), antagonism of orexin-A response
# CONDITIONS USED: CHO cells expressing human orexin-1 receptor, 3 nM orexin-A, geometric mean if determined several times, read-out: IC50 OX1
ENDPOINT: IC50 (nM)

Field: example entries. Status: answers known.
COc1cc(C(=O)N2CC[C@H]2c2noc(-c3ccccc3OC(F)(F)F)n2)c(-n2nccn2)cc1Cl
326
O=C(c1ccc(Cl)cc1-n1nccn1)N1CC[C@H]1c1nc(-c2ccccc2OC(F)(F)F)no1
616
O=C(c1cc(Cl)ccc1-n1nccn1)N1CC[C@H]1c1nc(-c2ccccc2OC(F)(F)F)no1
338
COc1cc(C(=O)N2CC[C@H]2c2nc(-c3ccccc3OC(F)(F)F)no2)c(-n2nccn2)cc1F
1420
Cc1cccc(-n2nccn2)c1C(=O)N1CC[C@H]1c1nc(-c2cccc(Cl)c2C)no1
812

1 = CCOc1ncccc1-c1noc([C@@H]2CCN2C(=O)c2cc(OC)c(F)cc2-n2nccn2)n1
2 = CCOc1ncccc1-c1noc([C@@H]2CCN2C(=O)c2cc(C)ccc2-n2nccn2)n1
3 = COc1c(F)cccc1-c1noc([C@@H]2CCN2C(=O)c2ccc(C)cc2-n2nccn2)n1 [Example 20]
IN: Sort entries by IC50 from minimum to maximum value. Thanks in advance for listing the labels in the requested order.
OUT: 2, 3, 1

Origin of measurements: patent US9403813B2
